Measured melting point, listed per entry.

Compound | Attribute Measured | Obs Value
Cc1nc(Cl)cn2cc(-c3cc4ccc(N5CCCN(C)CC5)cc4oc3=O)nc12 [Cpd 712] | melting point | 212 to 218 °C
CCN1CCN(c2ccc3cc(-c4cc5c(C)nc(C)cn5c4)c(=O)oc3c2)C[C@@H]1C [Compound 694] | melting point | 173 to 175 °C
Cc1cn2cc(-c3cc4ccc(N5CCC(N(C)C)CC5)cc4oc3=O)cc2c(C)n1 [Compound 715] | melting point | 192 to 195 °C
Cc1nccn2cc(-c3cc4ccc(N5CCN(C)CC5)cc4oc3=O)nc12 [Compound 551] | melting point | 221 to 222 °C
O=c1oc2cc(N3CCCNCC3)cc(F)c2cc1-c1cn2cccnc2n1 [Compound 336] | melting point | 305 to 307 °C

Record COc1cccc(-c2cc3ccc(N4CCN(C)CC4)cc3oc2=O)n1 [Compound 257] , field melting point: 162 to 164 °C

melting point recorded for this compound, Cc1cn2cc(-c3cc4ccc(N5C[C@H]6CNC[C@H]6C5)cc4oc3=O)nc2c(C)n1 [Compound 686] , is 250 to 260 °C

melting point for C[C@@H]1CN(c2ccc3cc(-c4cc5ccccc5o4)c(=O)oc3c2)C[C@H](C)N1 [Compound 604] is 191 to 193 °C

For this compound ( Cc1cn2cc(-c3cc4ccc(OC5CCN(CCO)CC5)cc4oc3=O)nc2c(C)n1 [Compound 899] ), measured melting point is 165 to 168 °C

Briefly, melting point measured for Cc1cn2cc(-c3cc4c(F)cc(N5CCCNCC5)cc4oc3=O)nc2c(C)n1 [Compound 608] : 248 to 250 °C

* * *

Attribute Measured: melting point

Before answering, review these 2 worked examples.
Molecule | melting point
C[C@@H]1CN(c2ccc3cc(-c4cn5cc(F)cnc5n4)c(=O)oc3c2)C[C@H](C)N1 | 275 to 281 °C
Cc1cn2cc(-c3cc4ccc(N5CCC(NC6CCC6)CC5)cc4oc3=O)nc2c(C)n1 | 222 to 225 °C

Per the record, `CN1CCCN(c2ccc3cc(-c4nc5ccccc5s4)c(=O)oc3c2)CC1` has melting point of 217 to 220 °C

Item: `Cc1cn2cc(-c3cc4ccc(N[C@@H]5CCN(C(C)C)C5)cc4oc3=O)nc2c(C)n1` | melting point: 200 to 207 °C

What the record says about `Cc1cn2cc(-c3cc4ccc(N5CCN(C6CCC6)CC5)cc4oc3=O)nc2cn1` : melting point is 268 to 274 °C

* * *

This section presents molecules with their documented melting point values.

Sample records with melting point:
Molecule | melting point
Cc1cccn2cc(-c3cc4ccc(N5C[C@@H](C)N[C@@H](C)C5)cc4oc3=O)nc12 | 243 to 246 °C
Cc1ccn2cc(-c3cc4ccc(N5CCNC(C)(C)C5)cc4oc3=O)nc2c1 | 217 to 223 °C
Cc1nc2ccc(-c3cc4ccc(N5CCCNCC5)cc4oc3=O)cc2s1 | 228 to 230 °C
CCc1cc(-c2cc3ccc(CCCN(C)C)cc3oc2=O)cn2cc(C)nc12 | 123 to 126 °C
Cc1cn2cc(-c3cc4ccc(C5CCN(C6CCC6)CC5)cc4oc3=O)nc2c(C)n1 | 200 to 205 °C

molecule `Cc1ccc2nc(-c3cc4ccc(N5CC[C@H](NC(=O)OC(C)(C)C)C5)cc4oc3=O)cn2c1` , melting point observed: 225 to 230 °C
